# target or system: Glucocorticoid receptor (Homo sapiens) (UniProt P04150)
# Sequence (P04150 whole entry): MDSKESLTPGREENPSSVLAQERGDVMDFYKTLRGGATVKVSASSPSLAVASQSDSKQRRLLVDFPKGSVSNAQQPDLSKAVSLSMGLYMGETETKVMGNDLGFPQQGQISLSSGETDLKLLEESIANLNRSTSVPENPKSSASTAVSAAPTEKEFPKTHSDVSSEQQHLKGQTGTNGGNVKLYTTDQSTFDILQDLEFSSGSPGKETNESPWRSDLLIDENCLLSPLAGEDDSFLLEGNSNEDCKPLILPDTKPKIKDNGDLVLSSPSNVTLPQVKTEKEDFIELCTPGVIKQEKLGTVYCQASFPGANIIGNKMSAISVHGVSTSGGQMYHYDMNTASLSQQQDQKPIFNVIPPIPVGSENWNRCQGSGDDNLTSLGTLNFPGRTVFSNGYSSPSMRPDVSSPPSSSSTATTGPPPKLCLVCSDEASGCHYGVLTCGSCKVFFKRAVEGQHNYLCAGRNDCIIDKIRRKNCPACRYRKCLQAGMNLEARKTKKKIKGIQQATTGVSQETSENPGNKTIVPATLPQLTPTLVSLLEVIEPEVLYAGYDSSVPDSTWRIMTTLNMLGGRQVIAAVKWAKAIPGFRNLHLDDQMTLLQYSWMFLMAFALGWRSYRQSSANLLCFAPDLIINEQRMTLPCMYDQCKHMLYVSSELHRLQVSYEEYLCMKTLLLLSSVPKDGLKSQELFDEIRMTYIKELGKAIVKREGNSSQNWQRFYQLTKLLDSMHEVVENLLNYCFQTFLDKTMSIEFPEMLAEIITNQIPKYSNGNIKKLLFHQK
# assay procedure: Transactivation activity at glucocorticoid receptor in human HepG2 cells expressing luciferase-taggged GRE gene at 1 uM by luciferase reporter gene assay relative to control
# Format: cell-based

[
  {
    "mol smiles": "C[C@@H]1C[C@H]2[C@@H]3C[C@H](F)C4=CC(=O)C=C[C@]4(C)[C@@]3(F)[C@@H](O)C[C@]2(C)[C@@]1(O)C(=O)CSc1nc2ccccc2s1",
    "target or system": "Glucocorticoid receptor (Homo sapiens) (UniProt P04150)",
    "unit annotation": "%",
    "Emax": 66
  },
  {
    "mol smiles": "C[C@]12CCC(=O)C=C1CC[C@@H]1[C@@H]2[C@@H](O)C[C@@]2(C)[C@H]1CC[C@]2(O)C(=O)CSc1nc2ccccc2s1",
    "target or system": "Glucocorticoid receptor (Homo sapiens) (UniProt P04150)",
    "unit annotation": "%",
    "Emax": 30
  },
  {
    "mol smiles": "C[C@]12C=CC(=O)C=C1CC[C@@H]1[C@@H]2[C@@H](O)C[C@@]2(C)[C@H]1CC[C@]2(O)C(=O)CSc1nc2ccccc2s1",
    "target or system": "Glucocorticoid receptor (Homo sapiens) (UniProt P04150)",
    "unit annotation": "%",
    "Emax": 29
  }
]
